# Target or test system: JAK2 (Homo sapiens, UniProt O60674)
# Construct: endogenous in cells
# Sequence (O60674 whole entry): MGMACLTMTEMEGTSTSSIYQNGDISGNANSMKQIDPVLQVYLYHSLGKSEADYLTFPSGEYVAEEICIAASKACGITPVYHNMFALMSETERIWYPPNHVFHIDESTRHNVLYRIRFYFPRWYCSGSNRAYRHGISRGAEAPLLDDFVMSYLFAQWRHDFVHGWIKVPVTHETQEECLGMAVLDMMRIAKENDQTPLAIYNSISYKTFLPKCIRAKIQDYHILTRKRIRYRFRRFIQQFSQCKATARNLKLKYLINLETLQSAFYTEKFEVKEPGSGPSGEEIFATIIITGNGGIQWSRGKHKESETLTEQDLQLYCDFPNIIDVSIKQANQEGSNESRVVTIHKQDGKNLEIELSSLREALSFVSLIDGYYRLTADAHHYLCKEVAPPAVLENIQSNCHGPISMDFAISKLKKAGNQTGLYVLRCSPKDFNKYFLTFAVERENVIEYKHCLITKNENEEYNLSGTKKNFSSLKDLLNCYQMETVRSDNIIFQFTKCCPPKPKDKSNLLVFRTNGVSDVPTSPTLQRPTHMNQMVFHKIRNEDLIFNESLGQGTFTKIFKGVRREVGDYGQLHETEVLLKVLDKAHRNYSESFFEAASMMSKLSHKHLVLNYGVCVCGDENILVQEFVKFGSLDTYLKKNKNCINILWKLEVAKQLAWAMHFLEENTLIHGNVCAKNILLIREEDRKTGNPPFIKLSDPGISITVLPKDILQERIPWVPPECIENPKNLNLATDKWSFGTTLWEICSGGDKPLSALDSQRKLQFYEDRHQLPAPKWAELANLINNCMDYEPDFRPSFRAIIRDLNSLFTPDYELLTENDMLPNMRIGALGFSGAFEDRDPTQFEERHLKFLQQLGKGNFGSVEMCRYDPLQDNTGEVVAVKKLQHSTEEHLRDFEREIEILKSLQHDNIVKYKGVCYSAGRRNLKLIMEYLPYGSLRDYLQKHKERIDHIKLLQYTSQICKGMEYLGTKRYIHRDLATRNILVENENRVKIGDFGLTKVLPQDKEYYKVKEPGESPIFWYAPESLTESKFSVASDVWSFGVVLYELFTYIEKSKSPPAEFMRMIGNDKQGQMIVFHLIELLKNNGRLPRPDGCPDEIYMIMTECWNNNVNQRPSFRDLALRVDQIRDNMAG
# Experiment notes: Kinobeads assay, JAK2
# Run conditions: mixed Molt4/Ramos lysate, read-out: Inhibition values (IC50) JAK2
pIC50: −log10 of the molar value.
// values below are reported pIC50

| Compound | pIC50 |
| --- | --- |
| CNC(=O)Cn1cc(Nc2ncc(Cl)c(N[C@H](CO)c3ccccc3F)n2)cn1 | 5.00 to 6.00 |
| CCn1cc(Nc2ncc(Cl)c(N[C@H](CO)c3cccc(OC)c3)n2)cn1 | ≤ 5.00 |
| CNC(=O)Cn1cc(Nc2ncc(Cl)c(N[C@H](CCO)c3ccccc3)n2)cn1 | 5.00 to 6.00 |
| Cn1cc(Nc2ncc(Cl)c(NC(CO)c3c(F)cccc3F)n2)cn1 (stereo not shown) | 5.00 to 6.00 |
| O=C(Cn1cc(Nc2ncc(Cl)c(N[C@H](CO)c3ccccc3F)n2)cn1)N1CCOCC1 | 5.00 to 6.00 |
| CNC(=O)Cn1cc(Nc2ncc(Cl)c(NC(CO)c3ccccc3F)n2)cn1 (stereo not shown) | 5.00 to 6.00 |
| CC(C)(O)Cn1cc(Nc2ncc(Cl)c(NC(CO)c3cccc(F)c3)n2)cn1 (stereo not shown) | 5.00 to 6.00 |
| CNC(=O)Cn1cc(Nc2ncc(Cl)c(N[C@H](CO)c3cccc(-c4cnn(C)c4)c3)n2)cn1 | 5.00 to 6.00 |
| CNC(=O)Cn1cc(Nc2ncc(Cl)c(N[C@H](CO)c3ccccc3OC)n2)cn1 | 5.00 to 6.00 |
| CC(C)NC(=O)Cn1cc(Nc2ncc(Cl)c(N[C@H](CO)c3ccccc3)n2)cn1 | 5.00 to 6.00 |
| Cn1cc(Nc2ncc(Cl)c(N[C@H](CO)c3ccccc3)n2)cn1 | 5.00 to 6.00 |
| NCCCn1cc(Nc2ncc(Cl)c(N[C@H](CO)c3ccccc3)n2)cn1 | 5.00 to 6.00 |
| OCCCn1cc(Nc2ncc(Cl)c(NC(CO)c3ccccc3F)n2)cn1 (stereo not shown) | 5.00 to 6.00 |
| COc1ccccc1[C@@H](CO)Nc1nc(Nc2cnn(C)c2)ncc1Cl | 5.00 to 6.00 |
| O=C(NCC(F)(F)F)C(Nc1nc(Nc2cnn(CCO)c2)ncc1Cl)c1ccccc1F (stereo not shown) | ≤ 5.00 |
| CNC(=O)Cn1cc(Nc2ncc(C)c(N[C@H](CO)c3ccccc3)n2)cn1 | 5.00 to 6.00 |
| NC(=O)Cn1cc(Nc2ncc(Cl)c(NC(CO)c3cc(F)ccc3F)n2)cn1 (stereo not shown) | 6.00 to 7.00 |
| CCNC(=O)[C@@H](Nc1nc(Nc2cnn(CCO)c2)ncc1Cl)c1ccccc1 | ≤ 5.00 |
| CC(C)OC(=O)Cn1cc(Nc2ncc(Cl)c(N[C@H](CO)c3ccccc3)n2)cn1 | 5.00 to 6.00 |
| OCCn1ccc(Nc2ncc(Cl)c(NC(CO)c3c(F)cccc3F)n2)n1 (stereo not shown) | ≤ 5.00 |
| O=C([C@@H](Nc1nc(Nc2cnn(CCO)c2)ncc1Cl)c1ccccc1)N1CCCCC1 | ≤ 5.00 |
| Cc1cnc(Nc2cnn(C)c2)nc1N[C@H](CO)c1cccc(-c2cnn(C)c2)c1 | ≤ 5.00 |
| OCCn1cc(Nc2ncc(Cl)c(NC(CO)c3cccc(Br)c3)n2)cn1 (stereo not shown) | 5.00 to 6.00 |
| NC(=O)Cn1cc(Nc2ncc(F)c(N[C@H](CO)c3ccccc3)n2)cn1 | ≤ 5.00 |
| O=C(c1cc(Nc2ncc(Cl)c(N[C@H](CO)c3ccccc3)n2)c[nH]1)N1CCOCC1 | 6.00 to 7.00 |
| OCCn1ccc(Nc2ncc(Cl)c(NC(CO)c3cccc(F)c3)n2)n1 (stereo not shown) | ≤ 5.00 |
| Cn1cc(Nc2ncc(Cl)c(N[C@H](CO)c3cccc(N4CCOCC4=O)c3)n2)cn1 | ≤ 5.00 |
| CNC(=O)Cn1cc(Nc2ncc(Cl)c(NC(CO)c3cc(F)cc(F)c3)n2)cn1 (stereo not shown) | 5.00 to 6.00 |
| OCCn1cc(Nc2ncc(Cl)c(NC(CO)c3cccc(F)c3)n2)cn1 (stereo not shown) | 6.00 to 7.00 |
| OCCn1cc(Nc2ncc(Cl)c(NC(CO)c3c(F)cccc3F)n2)cn1 (stereo not shown) | 5.00 to 6.00 |
| CNC(=O)Cn1cc(Nc2ncc(F)c(N[C@H](CO)c3cc(F)ccc3F)n2)cn1 | 5.00 to 6.00 |
| OCCn1ccc(Nc2ncc(Cl)c(NC(CO)c3ccccc3F)n2)n1 (stereo not shown) | ≤ 5.00 |
| CC(C)(O)Cn1cc(Nc2ncc(Cl)c(NC(CO)c3c(F)cccc3F)n2)cn1 (stereo not shown) | ≤ 5.00 |
| OCCn1cc(Nc2ncc(Cl)c(N[C@H](CO)c3cccnc3)n2)cn1 | 5.00 to 6.00 |
